Test system: Human immunodeficiency virus 1
run description: Antiviral activity against HIV1 harboring RT F227L/V106A mutant infected in human MT4 cells assessed as inhibition of virus-induced cytopathic effect incubated for 5 days by MTT assay
Format: functional, organism-based
conditions used: Human immunodeficiency virus 1, MT4, 120 h

chemical structure: Cc1cc(C#CC=C2CCN(S(=O)(=O)C3CC3)CC2)cc(C)c1Oc1ccnc(Nc2ccc(C#N)cc2)n1
EC50: > 4.66 µM

chemical structure: Cc1cc(C#CC=C2CCN(Cc3ccccc3C#N)CC2)cc(C)c1Oc1ccnc(Nc2ccc(C#N)cc2)n1
EC50: > 42.4 µM

chemical structure: Cc1cc(C#CC=C2CCN(S(=O)(=O)C(C)C)CC2)cc(C)c1Oc1ccnc(Nc2ccc(C#N)cc2)n1
EC50: > 4.58 µM

chemical structure: CCS(=O)(=O)N1CCC(=CC#Cc2cc(C)c(Oc3ccnc(Nc4ccc(C#N)cc4)n3)c(C)c2)CC1
EC50: > 4.96 µM

chemical structure: CCC(=O)N1CCC(=CC#Cc2cc(C)c(Oc3ccnc(Nc4ccc(C#N)cc4)n3)c(C)c2)CC1
EC50: 1.3 µM

chemical structure: Cc1cc(C#CC=C2CCN(S(C)(=O)=O)CC2)cc(C)c1Oc1ccnc(Nc2ccc(C#N)cc2)n1
EC50: > 5.49 µM

chemical structure: Nc1ccn([C@H]2CS[C@@H](CO)O2)c(=O)n1
EC50: 2.17 µM
